- Tested on: Klebsiella pneumoniae
- Assay protocol: Antibacterial activity against Klebsiella pneumoniae FADDI-KP065 assessed as decrease in bacterial growth at 0.25 to 4 mg/L in presence of lung surfactant by broth microdilution assay
- Type: functional, organism-based
- Reported conditions: dose 0.25-4 mg/L
The source made the active and inactive calls. The calls are words filed in the database; no cut-off is given here. Where a SMILES comes first, the peptide text is derived from it. Bridges are numbered along the chain shown (N, C = ends). [ ]: non-standard residue; d: D form. The star is where a group is joined. X1 = CC[C@H](C)CCCCC(=O)*; dDab = NCC[C@@H](N)C(=O)O; Dab = NCC[C@H](N)C(=O)O
Outcome codes: active, inactive

compound=CCCCCCCCCC(=O)N[C@@H](CCN)C(=O)N[C@H](C(=O)N[C@@H](CCN)C(=O)N[C@H]1CCNC(=O)[C@H]([C@@H](C)O)NC(=O)[C@H](CCN)NC(=O)[C@H](CCN)NC(=O)[C@H]([C@H](C)O)NC(=O)[C@@H](CC(C)C)NC(=O)[C@H](CCN)NC1=O)[C@@H](C)O qualitative_label=active
compound=CCCCCC(=O)N[C@@H](CCN)C(=O)N[C@@H](C(=O)N[C@@H](CCN)C(=O)N[C@H]1CCNC(=O)[C@@H]([C@H](C)O)NC(=O)[C@H](CCN)NC(=O)[C@H](CCN)NC(=O)[C@H]([C@H](C)O)NC(=O)[C@@H](CC(C)C)NC(=O)[C@H](CCN)NC1=O)[C@H](C)O qualitative_label=inactive
compound="CC[C@H](C)CCCCC(=O)N[C@@H](CCN)C(=O)N[C@H](C(=O)N[C@H](CCN)C(=O)N[C@H]1CCNC(=O)[C@H]([C@@H](C)O)NC(=O)[C@H](CCN)NC(=O)[C@H](CCN)NC(=O)[C@H]([C@@H](C)O)NC(=O)[C@@H](CC(C)C)NC(=O)[C@H](CCN)NC1=O)[C@@H](C)O (X1-[Dab]T[dDab][Dab][Dab][dL]T[Dab][Dab]T; lactam 4-C)" qualitative_label=active
